read-out: Cellular tumor antigen p53 (Homo sapiens); test: LTEA_HepaRG_TP53: Life Technologies and Expression Analysis (LTEA) Assay for Tumor Protein P53 (TP53) using HepaRG (AID 2283537); conditions: mRNA level, 48 h; actives raise or lower the signal
The source made the active and inactive calls. The calls were made as follows: active = hit-call score of the fitted dose curve at least 0.9, where 1 is the maximum; inactive = score below 0.9.
Please answer using one outcome listed in y (active), n (inactive)

Here are 2 compounds together with their reported answers.
compound	answerLabel
Oc1ccc2ccccc2c1	n
c1ccc2n[nH]nc2c1	n

// outcome(item) with item = "CC(C)(C)c1csc(-c2cc3cc(OCc4ccccc4CC(=O)O)ccc3o2)n1"
y

Assay outcome for "CCCCOC(=O)CC(CC(=O)OCCCC)(OC(C)=O)C(=O)OCCCC" : what was it?
n

What was the test verdict on "Cc1occc1C(=O)Nc1ccc(C(=O)N2CCC(F)(F)/C(=C\C(=O)N3CCC(N4CCCCC4)CC3)c3ccccc32)cc1" ?
n

Can you look up the reported call for "C[C@]12CC[C@@H]3c4ccc(O)cc4CC[C@H]3[C@@H]1CC[C@H]2O" for me?
n

Tell me the assay call for "CO[C@H]1/C=C/O[C@@]2(C)Oc3c(C)c(O)c4c(O)c(c(/C=N/N5CCN(C)CC5)c(O)c4c3C2=O)NC(=O)/C(C)=C\C=C\[C@H](C)[C@H](O)[C@@H](C)[C@@H](O)[C@@H](C)[C@H](OC(C)=O)[C@@H]1C" please.
n

Tell me the assay call for "CCN(Cc1cccc(S(=O)(=O)O)c1)c1ccc(C(=C2C=CC(=[N+](CC)Cc3cccc(S(=O)(=O)O)c3)C=C2)c2ccccc2S(=O)(=O)[O-])cc1" please.
n

Lab log entry: "Cc1cc(F)ccc1-c1cc(N2CC[C@@H](O)[C@H]2CO)ncc1N(C)C(=O)C(C)(C)c1cc(C(F)(F)F)cc(C(F)(F)F)c1" — outcome as called in the assay?
y

For this compound, state the assay outcome: "COc1ccc2cc(S(=O)(=O)N[C@H](CC(=O)N[C@H](Cc3ccc(CN4[C@H](C)CCC[C@@H]4C)cc3)C(=O)N(C)C(C)C)c3ccc4c(c3)OCO4)ccc2c1"
y

I would be grateful if you could indicate the recorded call for "CCCCCCCCCC(=O)O" .
n

Recorded test call requested for "O=c1c(-c2ccc(O)cc2)coc2cc(O)cc(O)c12"
n

I'd appreciate the recorded outcome for "Oc1ccccc1" from this test.
n

Each compound tested received a call. Report the one for "NCc1cccc(C2CCN(C(=O)c3ccc(C#Cc4ccccc4F)o3)CC2)c1" .
n

How did this test come out for "CCCCCc1ccc(N)cc1" ?
n

Record lookup: outcome of this test for "CN(C)C(=O)C1(N2CCCCC2)CCN(CC[C@@]2(c3ccc(Cl)c(Cl)c3)CN(C(=O)c3ccccc3)CCO2)CC1" ?
y

* * *

read-out: BCL2L11 (gene 10018); test: LTEA_HepaRG_BCL2L11: Life Technologies and Expression Analysis (LTEA) Assay for Bcl-2 (BCL2L11) gene using HepaRG (AID 2283473); details: mRNA level, 48 h; actives raise or lower the signal
Calls of active or inactive are those of the source. Rule for the calls: active = hit-call score of the fitted dose curve at least 0.9, where 1 is the maximum; inactive = score below 0.9.
Write down one outcome, taken from active, inactive

Consider the worked cases shown below.
In [3]: df
Out[3]:
                                   compound  answerlabel
0  Cc1cn([C@H]2C[C@H](N=[N+]=[N-])[C@@H](CO)O2)c(=O)[nH]c1=O     inactive
1  O=C(O)Cn1c(=O)n(Cc2ccc(Br)cc2F)c(=O)c2ccc(Cl)cc21     inactive
2  C[C@]12CC[C@@H]3c4ccc(O)cc4CC[C@H]3[C@@H]1CC[C@H]2O     inactive
3                   CCCCCCCCCCCC[N+](C)(C)C       active
4                            c1ccc2ccccc2c1     inactive
5  COCC(C)OCC(C)OCC(C)O (configuration not stated)     inactive
6       O=C(Nc1ccc(Cl)cc1)Nc1ccc(Cl)c(Cl)c1     inactive
7  CC1(C)NC(=O)N(c2ccc([N+](=O)[O-])c(C(F)(F)F)c2)C1=O     inactive
8              c1ccc(C[n+]2cccc3ccccc32)cc1       active
9  CCN(Cc1cccnc1)C(=O)c1cccc(Cl)c1[C@]1(C)C(=O)N(Cc2ccc(OC)cc2OC)c2ccc(Cl)cc21     inactive

Give the logged outcome of this assay for the following compound: "Cc1ccc2oc(CN(Cc3ccccc3)C(=O)Nc3c(F)cc(F)cc3F)c(-c3ccc(Cl)cc3)c2c1"
inactive

Hey, what did the test say about "CCCCOC(=O)CC(CC(=O)OCCCC)(OC(C)=O)C(=O)OCCCC" ?
inactive
